# System: HEK293T (UBE3A T485A transfected, BAR Wnt reporter)
# Assay Summary: Wnt reporter firefly/Renilla luciferase ratio relative to plate median (fold (linear ratio)); higher = more Wnt/beta-catenin reporter activation
# Setup Conditions: concentration: 10 uM; 24 h
Whole data set: some 1,100 compounds, median “Wnt reporter firefly/Renilla luciferase ratio relative to plate median” near 1.1, cut for the highest 2% near 1.6. The entries come from a sample that favours the highest values as a whole.
Readout Name: Wnt reporter firefly/Renilla luciferase ratio

# Compound, Experimental Result
records = [
    ("CN(C)c1ccc(Cc2ccc(N(C)C)cc2)cc1", 1.14),
]

Give Wnt reporter firefly/Renilla luciferase ratio for each of the items listed below.
1. COP(=O)(OC)O/C(C)=C/C(=O)N(C)C
2. OC(c1ccc(Cl)cc1)(c1ccc(Cl)cc1)C(Cl)(Cl)Cl
3. COc1cc(OC)nc(NC(=O)[N-]S(=O)(=O)c2ncccc2OCC(F)(F)F)n1.[Na+] [Trifloxysulfuron-sodium]
4. CN(C)C(=S)[S-].[Na+] [Sodium dimethyldithiocarbamate]
5. CC(C)Oc1cccc(NC(=O)c2ccccc2C(F)(F)F)c1

1. 0.957
2. 1.3
3. 1.22
4. 0.751
5. 0.768

Give Wnt reporter firefly/Renilla luciferase ratio for each of the items listed below.
1. CC(Oc1cccc(Cl)c1)C(=O)O (stereo not given)
2. N#Cc1c(Cl)c(Cl)c(Cl)c(C#N)c1Cl
3. COP(=O)(OC)OC=C(Cl)Cl
4. Clc1ccc(C(Cl)(Cl)Cl)cc1 [4-Chlorobenzotrichloride]

[1.28, 0.725, 1.34, 1.42]

Give Wnt reporter firefly/Renilla luciferase ratio for each of the items listed below.
1. CCC(C)(c1ccc(O)cc1)c1ccc(O)cc1
2. Clc1ccc(Cl)c(Cl)c1
3. Nc1ccc(Cl)cc1N
4. NC(=O)[O-].[NH4+] [Ammonium carbamate]
5. CN(C)C(=S)[S-].CN(C)C(=S)[S-].[Zn+2]

[0.999, 1.04, 0.852, 0.934, 0.577]

Give Wnt reporter firefly/Renilla luciferase ratio for each of the items listed below.
1. C[C@]12C=CC3=C4CCC(=O)C=C4CC[C@H]3[C@@H]1CC[C@@H]2O
2. C1=Cc2cccc3cccc1c23
3. NC1=NC(O)C2C3OC4(O)OC(C(O)C2(N1)C4O)C3(O)CO (stereo not given)

[0.938, 1.41, 1.06]

Give Wnt reporter firefly/Renilla luciferase ratio for each of the items listed below.
1. CC(C)(OOC(C)(C)c1ccccc1)c1ccccc1 [Dicumyl peroxide]
2. Clc1cccc(Cl)c1

0.968
1.45

* * *

# Test system: HEK293T (UBE3A T485A transfected, BAR Wnt reporter)
# Assay Summary: Wnt reporter firefly/Renilla luciferase ratio relative to plate median (fold (linear ratio)); higher = more Wnt/beta-catenin reporter activation
# Setup Conditions: concentration: 0.1 uM; 24 h
Whole data set: some 1,100 compounds, median “Wnt reporter firefly/Renilla luciferase ratio relative to plate median” near 1.1, cut for the highest 2% near 1.6. Many of the other results were omitted from the sample, so the highest values are more common in it than they were.
Readout Name: Wnt reporter firefly/Renilla luciferase ratio
Numbers only.

Example cases with answers are listed next.
# Compound, Experimental Result
records = [
    ("N#Cc1c[nH]cc1-c1cccc2c1OC(F)(F)O2 [Fludioxonil]", 0.842),
    ("CCOP(=O)(NC(C)C)Oc1ccc(SC)c(C)c1 (centres undefined) [Fenamiphos]", 0.758),
    ("O=C(O)C(F)(F)C(F)(F)C(F)(F)C(F)(F)C(F)(F)C(F)(F)C(F)(F)C(F)(F)C(F)(F)C(F)(F)F [Perfluoroundecanoic acid]", 1.11),
    ("O=C(O)C(F)(F)C(F)(F)C(F)(F)C(F)(F)C(F)(F)C(F)(F)F [Perfluoroheptanoic acid]", 0.82),
    ("C[n+]1ccc(-c2cc[n+](C)cc2)cc1 [Paraquat]", 1.36),
    ("CNC(=O)Oc1cccc2c1OC(C)(C)O2 [Bendiocarb]", 1.17),
    ("C=C(C)[C@H]1Cc2c(ccc3c2O[C@@H]2COc4cc(OC)c(OC)cc4[C@@H]2C3=O)O1 [Rotenone]", 0.675),
    ("CCCCN(CCCC)SN(C)C(=O)Oc1cccc2c1OC(C)(C)C2 [Carbosulfan]", 1.07),
]

Next item in the queue.
Field request: Wnt reporter firefly/Renilla luciferase ratio | item: O=C(O)C(F)(F)C(F)(F)C(F)(F)C(F)(F)C(F)(F)C(F)(F)C(F)(F)F
1.71

* * *

Assignment: determine reported Wnt reporter firefly/Renilla luciferase ratio for the given molecules.
# System: HEK293T (UBE3A T485A transfected, BAR Wnt reporter)
# Assay Summary: Wnt reporter firefly/Renilla luciferase ratio relative to plate median (fold (linear ratio)); higher = more Wnt/beta-catenin reporter activation
# Setup Conditions: concentration: 100 uM; 24 h
In all, about 1,100 compounds were measured (“Wnt reporter firefly/Renilla luciferase ratio relative to plate median”: median about 1.1, highest 2% from about 1.6 on). Only a selection was taken, and the highest values are over-represented in it overall.

# Molecule, Experimental Result
measured = [
    ("CN1COCN(Cc2cnc(Cl)s2)C1=N[N+](=O)[O-]", 1.2),
    ("C#CCC1=C(C)C(OC(=O)C2C(C=C(C)C)C2(C)C)CC1=O (stereo not given)", 0.276),
    ("C=CCc1ccc2c(c1)OCO2", 1.23),
    ("COc1ccc(C)cc1N", 1.29),
    ("NC1=NC(O)C2C3OC4(O)OC(C(O)C2(N1)C4O)C3(O)CO (stereo not given)", 1.8),
]

Give Wnt reporter firefly/Renilla luciferase ratio for each of the items listed below.
1. COP(=S)(OC)SCN1C(=O)c2ccccc2C1=O
2. CCc1nn(C)c(C(=O)NCc2ccc(C(C)(C)C)cc2)c1Cl
3. CCCCC(O)(Cn1cncn1)c1ccc(Cl)cc1Cl (stereo not given)

1: 1.65; 2: 0.51; 3: 0.397

Give Wnt reporter firefly/Renilla luciferase ratio for each of the items listed below.
1. Clc1ccccc1Cl
2. O=[N+]([O-])c1c(Cl)c(Cl)c(Cl)c(Cl)c1Cl
3. Cl[C@H]1[C@H](Cl)[C@@H](Cl)[C@H](Cl)[C@@H](Cl)[C@@H]1Cl
4. COP(=S)(OC)SCn1nnc2ccccc2c1=O
5. O=C(Oc1ccc(Br)cc1)N1CCN2CCC1CC2
6. CNC(=O)/C=C(\C)OP(=O)(OC)OC
7. Cc1cc(N=Nc2ccccc2C)ccc1N

1: 1.62; 2: 1.26; 3: 1.03; 4: 0.837; 5: 0.334; 6: 1.12; 7: 0.582

* * *

# Test system: HEK293T (UBE3A T485A transfected, BAR Wnt reporter)
# Assay Summary: Wnt reporter firefly/Renilla luciferase ratio relative to plate median (fold (linear ratio)); higher = more Wnt/beta-catenin reporter activation
# Setup Conditions: concentration: 0.01 uM; 24 h
Over roughly 1,100 compounds, “Wnt reporter firefly/Renilla luciferase ratio relative to plate median” has its median near 1.1; the highest 2% begin near 1.6. The entries come from a sample that favours the highest values as a whole.
Readout Name: Wnt reporter firefly/Renilla luciferase ratio
One number for each entry.

Example cases with answers are listed next.
# Molecule, Experimental Result
records = [
    ("O=C(Nc1ccccc1)Nc1ccnc(Cl)c1", 1.1),
    ("CCNC(=O)NC(=O)/C(C#N)=N/OC", 1.42),
    ("C/C(=N\\C#N)N(C)Cc1ccc(Cl)nc1", 1.26),
    ("CON=C(C(=O)OC)c1ccccc1CON=C(C)c1cccc(C(F)(F)F)c1", 0.871),
]

Give Wnt reporter firefly/Renilla luciferase ratio for each of the items listed below.
1. N#Cc1c[nH]cc1-c1cccc2c1OC(F)(F)O2
2. CCOP(=O)(SC(C)CC)N1CCSC1=O (centres undefined) [Fosthiazate]
3. Cc1c(COC(=O)[C@H]2[C@@H](/C=C(\Cl)C(F)(F)F)C2(C)C)cccc1-c1ccccc1
4. CCC(CC)Nc1c([N+](=O)[O-])cc(C)c(C)c1[N+](=O)[O-]
5. CNC(=S)[S-].O.O.O.[Na+] [Metam-sodium hydrate]

[0.759, 0.839, 0.843, 0.882, 0.905]

* * *

# Test system: HEK293T (UBE3A T485A transfected, BAR Wnt reporter)
# Assay Summary: Wnt reporter firefly/Renilla luciferase ratio relative to plate median (fold (linear ratio)); higher = more Wnt/beta-catenin reporter activation
# Setup Conditions: concentration: 0.01 uM; 24 h
In all, about 1,100 compounds were measured (“Wnt reporter firefly/Renilla luciferase ratio relative to plate median”: median about 1.1, highest 2% from about 1.6 on). Shown is part of a subset that was picked to be rich in the highest values.
Quick rule: Wnt reporter firefly/Renilla luciferase ratio of at least 1 means 1, below that means -1.

# Compound, Cat
data = [
    ("CNC(=O)ON=C(SC)C(=O)N(C)C", 1),
    ("CCCCOC(=O)[C@@H](C)Oc1ccc(Oc2ccc(C#N)cc2F)cc1", 1),
    ("N#CSCSC#N [Methylene bis(thiocyanate)]", -1),
    ("C#CCOS(=O)OC1CCCCC1Oc1ccc(C(C)(C)C)cc1 (centres undefined)", 1),
    ("COC(=O)N(C(=O)N1CO[C@@]2(C(=O)OC)Cc3cc(Cl)ccc3C2=N1)c1ccc(OC(F)(F)F)cc1", -1),
]

Check if Wnt reporter firefly/Renilla luciferase ratio >= 1 (inclusive). Item: N#CC(CCc1ccc(Cl)cc1)(Cn1cncn1)c1ccccc1 (centres undefined)
1

Please answer likewise for CC(C)N1C(=O)c2ccccc2NS1(=O)=O
1
